Taken from the supplement of paper PMC8253809.

tested on: HGGX6 (H3.3 G34R paediatric high-grade glioma line); assay: growth inhibition (% activity, log2 RLU normalised to DMSO / staurosporine); higher = more growth inhibition; conditions: 33 µM
outcomeMeasure: growth inhibition (%)
All answers are understood in %, so give the number only.

Here's what some known entries look like.
NC(=O)NO	-4.15
C=C1/C(=C\C=C2/CCC[C@]3(C)[C@@H]([C@H](C)CCCC(C)C)CC[C@@H]23)C[C@@H](O)C[C@@H]1O	3.92
CCCCOc1ccc(CC(=O)NO)cc1	12.9
O=C(OCC(O)CO)c1ccccc1Nc1ccnc2cc(Cl)ccc12 (centres undefined)	1.2
Cc1cc2nc3c(=O)[nH]c(=O)nc-3n(C[C@H](O)[C@H](O)[C@H](O)CO)c2cc1C	-1.29

Query: Reported growth inhibition, compound COc1cc(C(=O)NC2CCCNC2)cc(OC)c1OC (centres undefined) : ____
Response: -3.35

Query: Entry `CC(=O)[C@H]1CC[C@H]2[C@@H]3CC=C4C[C@@H](O)CC[C@]4(C)[C@H]3CC[C@]12C` please
Response: -0.479

Query: How about this compound: `CCn1cc(C(=O)O)c(=O)c2cc(F)c(N3CCNCC3)cc21`
Response: 2.09

Query: Now consider `CC[C@]1(O)C[C@@H]2CN(CCc3c([nH]c4ccccc34)[C@@](C(=O)OC)(c3cc4c(cc3OC)N(C)[C@H]3[C@@](O)(C(=O)OC)[C@H](OC(C)=O)[C@]5(CC)C=CCN6CC[C@]43[C@@H]65)C2)C1` and answer again.
Response: 11.5

###

test system: DIPGX29 (H3.3 K27M diffuse intrinsic pontine glioma line); test: growth inhibition (% activity, log2 RLU normalised to DMSO / staurosporine); higher = more growth inhibition; conditions: 33 µM
Items are presented alongside their recorded growth inhibition.
Record the value in %, omitting the unit from your answer.

Reference set, count: 5
CC(=O)Nc1ncc([N+](=O)[O-])s1	-0.525
CN1CCC(OC(c2ccccc2)c2ccccc2)CC1	1.96
Nc1c(CC(=O)O)cccc1C(=O)c1ccccc1	-1.69
CC(=O)O[C@]1(C(C)=O)CC[C@H]2[C@@H]3C=C(C)C4=CC(=O)CC[C@]4(C)[C@H]3CC[C@@]21C	0.869
NC(=O)c1ncn([C@@H]2O[C@H](CO)[C@@H](O)[C@H]2O)c1N	1.44

Query: Name the reported growth inhibition value associated with the compound `O=C(O)CCCC[C@@H]1SC[C@@H]2NC(=O)N[C@@H]21`
Response: 0.444

Query: Then Cc1cccc(C)c1OCC(C)N (centres undefined) ?
Response: -3.9

Query: Further, for `CCc1c(Cl)c(O)c(Cl)c(O)c1C(=O)O[C@H]1[C@H](O)[C@H](OC)[C@H](OC/C2=C\C=C\C[C@H](O)/C(C)=C/[C@H](CC)[C@@H](O[C@@H]3OC(C)(C)[C@@H](OC(=O)C(C)C)[C@H](O)[C@@H]3O)/C(C)=C/C(C)=C/C[C@@H]([C@@H](C)O)OC2=O)O[C@@H]1C` ?
Response: 0.669

Query: Repeat with `Nc1ccc(C(=O)NCC(=O)O)cc1`
Response: -0.487

###

tested on: DIPGX29; experiment: growth inhibition (% activity, log2 RLU normalised to DMSO / staurosporine); higher = more growth inhibition; settings: 33 µM
outcomeMeasure: growth inhibition (%)
Just the number in %, nothing appended.

Query: Look at this compound and give its reported growth inhibition. CCCC1O[C@@H]2C[C@H]3[C@@H]4CCC5=CC(=O)C=C[C@]5(C)[C@H]4[C@@H](O)C[C@]3(C)[C@]2(C(=O)CO)O1 (stereo partly drawn)
Response: 2.07
